Parameter: INHIBITION. Scope: all listed entries.
Test system: Plasmodium berghei
experiment-description: Screen against P. berghei liver stage (PbLuc), transformed with Luciferase, at 2uM
Type: functional, HepG2
assay-conditions: tested at 2 uM
Screen size: about 68,000 compounds; about 2,700 (4%) showed an effect of 50% or more. This is one part of a sample in which strong results are shown more often than they occur.
readout: INHIBITION (%)

In [3]: df
Out[3]:
                                    molecule  measured_result
 0  CN1CCCC(c2cccc(-c3cccc(F)c3)n2)C1 (centres undefined)            13.88
 1  CCN1CCc2c(cccc2NC(=O)N(C)C2CCSC2)C1 (centres undefined)             51.9
 2            O=C(NCCCO)Nc1cnc2cc(Cl)ccc2c1O             47.4
 3     Fc1cc(CNCc2ccc3c(c2)CCO3)ccc1N1CCOCC1           -10.05
 4  Cc1nc(-c2c(-c3ccccc3)ncn2CCCN2CCOCC2)c[nH]1             64.9
 5    O=C(NCCCN1CCOCC1)c1cc(-c2ccccc2)[nH]n1           -55.91
 6    c1cc(CNCc2ccc3c(c2)CCO3)cc(N2CCOCC2)n1            57.82
 7  c1ccc(-c2ncn(CCCN3CCOCC3)c2-c2ccncc2)cc1             64.9
 8  OCc1ccc(-c2c(-c3ccccc3)ncn2CCN2CCOCC2)o1           -23.34
 9  Cc1ccc(CN2CCC3(CC2)CC(c2cccnc2)C(=O)N3C)o1 (centres undefined)              8.6
10       COc1ccc(CNCc2ccnc(N3CCCCC3)c2)cc1OC            30.91
11  CC(C)(Cn1cnc(-c2ccccc2)c1-c1ccco1)N1CCOCC1            -9.41
12  Cc1cc(N2CCC(O)(CN(C)C(=O)CCN)CC2)c2cnccc2n1            57.47
13  Cc1cc(N2CCC(O)(CN(C)C(=O)CCCN)C2)c2cnccc2n1 (centres undefined)           -14.93
14   c1cc(CNCc2ccnc(N3CCOCC3)c2)c2c(c1)OCCO2             1.22
15  COCCC(=O)NCCn1nc(C2CCNC2)c2cccnc21 (centres undefined)             49.9
16  CCc1nc2n(n1)CC(NCc1cc(OC)c3c(c1)OCO3)CC2 (centres undefined)            40.24
17  Cn1ccnc1CN1CCC2(CC(=O)N(c3ccccn3)C2)C1 (centres undefined)            44.46
18  CN1CCCC(c2cccc(-c3cccc(C(F)(F)F)c3)n2)C1 (centres undefined)            38.64
19       COc1ccc(CNCc2ccnc(N3CCOCC3)c2)cc1OC            62.13
20     COc1ccc(OC)c(CNCc2ccnc(N3CCOCC3)c2)c1           -28.39
21  CN1CCCC(c2cccc(-c3cccc(Cl)c3)n2)C1 (centres undefined)             51.5
22  CCN1CCN(c2ccccc2NC(=O)N(C)C2CCSC2)CC1 (centres undefined)            25.08
23  Cc1cnn(CC2CCCCN2CCCS(N)(=O)=O)c1 (centres undefined)              8.1

====

Test system: Plasmodium berghei
experiment-description: Screen against P. berghei liver stage (PbLuc), transformed with Luciferase, at 2uM
Type: functional, HepG2
assay-conditions: tested at 2 uM
In all, about 68,000 compounds went through this assay and about 2,700 (4%) showed an effect of 50% or more. The entries come from a sample that favours strong results as a whole.
readout: INHIBITION (%)

>>> print(df.to_string())
                                   compound  result_unit  measured_result
0         CNC(=O)COc1cccc(CNCc2c(C)noc2C)c1            %           -16.18
1  N#Cc1cccc(CN2CC3(CCCCN3c3cncnc3)CC2=O)c1 (stereo unspecified)            %           -29.69
2  CS(=O)(=O)N1CCC(NC(=O)COc2ccc(Cl)cc2)CC1            %            54.86
3        Cn1cc(C(=O)NC2CCCC2)c(-c2cccnc2)n1            %           -18.81
4           CNC(=O)COc1ccccc1CNCc1c(C)noc1C            %            57.75
5  Cc1noc(C)c1CN1CC2(CCCCN2C)CC1=O (stereo unspecified)            %            21.57

====

INHIBITION listing for selected compounds.
System: Plasmodium berghei
experiment-description: Screen against P. berghei liver stage (PbLuc), transformed with Luciferase, at 2uM
Assay type: functional, HepG2
assay-conditions: tested at 2 uM
The campaign covered roughly 68,000 compounds. About 2,700 (4%) showed an effect of 50% or more. For the sample, strong results were picked, then their nearest neighbours and some compounds at random.
readout: INHIBITION (%)

                                   compound     readout  result_unit  measured_result
0  O=C(NC[C@H]1OC[C@@H](NC(=O)c2ccccc2)[C@@H]1O)c1ccncc1  INHIBITION            %            25.94
1  Cc1occc1C(=O)N1CCc2c(CNS(C)(=O)=O)cncc2C1  INHIBITION            %           -15.09
2                OCc1n[nH]c(-c2ccc(F)cc2)n1  INHIBITION            %             27.8
3  CCC(NCc1ccccc1)c1ccccc1OCC(=O)NC (stereo unspecified)  INHIBITION            %            -3.09
4  Cc1ncccc1CNC(CCO)C1CCCCC1 (stereo unspecified)  INHIBITION            %           -16.72
5  Cc1cc(NC(=O)N2CCOC(C(N)=O)C2)ccc1Br (stereo unspecified)  INHIBITION            %            29.89

====

Test system: Plasmodium berghei
experiment-description: Screen against P. berghei liver stage (PbLuc), transformed with Luciferase, at 2uM
Assay type: functional, HepG2
assay-conditions: tested at 2 uM
About 2,700 (4%) of roughly 68,000 compounds showed an effect of 50% or more. The sample as a whole holds a higher share of strong results than the screen did.
readout: INHIBITION (%)

>>> print(df.to_string())
                                    molecule     readout  result_unit  measured_result
 0               CC(=O)Nc1cnc(Oc2ccccc2F)nc1  INHIBITION            %             8.41
 1  CNC(=O)[C@@H]1COC[C@H]2CN(C(=O)c3ccc(OC)cc3)C[C@H]21  INHIBITION            %            51.36
 2  O=C1CCc2cc(NC(=O)C3CCCN3c3nccs3)ccc2N1 (stereo unspecified)  INHIBITION            %           -73.41
 3              CCc1ncc(C(=O)NCCNc2ccncc2)s1  INHIBITION            %              -23
 4     CCc1ncc(C(=O)NCCNC(=O)Cc2ccc(F)cc2)s1  INHIBITION            %            61.99
 5       CN(C)CCCNC(=O)c1cnc(Cc2ccc(F)cc2)s1  INHIBITION            %           -12.27
 6  Cc1ccc(C(=O)N2C[C@@H]3CCCO[C@@H]3[C@H](N3CCOCC3)C2)cn1  INHIBITION            %           -35.23
 7  CN(C)C(=O)CN(C)C(=O)c1cnc(Cc2ccc(F)cc2)s1  INHIBITION            %            52.08
 8  Cc1cccc(=O)n1CCC(=O)N1CC[C@](C)(O)[C@H](C)C1  INHIBITION            %            -4.52
 9   O=C(CCN1CCCCO1)N1CCC(CO)(CCc2ccccc2)CC1  INHIBITION            %            12.56
10  Cc1cccc(=O)n1CCC(=O)N1CC[C@@](O)(C2CCC2)[C@H](C)C1  INHIBITION            %           -11.55

Data provenance is ChEMBL document CHEMBL4513216.
